Where do the numbers come from? From patent US10209240B2.

List of Viability Prediction tested on WA09 hES cells.

Use these answered entries as a reference point.
compound="CC[C@H](C)C(=O)O[C@H]1C[C@@H](C)C=C2C=C[C@H](C)[C@H](CC[C@@H]3C[C@@H](O)CC(=O)O3)[C@H]21 [Lovastatin]" value=NON
compound="CS(=O)(=O)CCNCc1ccc(-c2ccc3ncnc(Nc4ccc(OCc5cccc(F)c5)c(Cl)c4)c3c2)o1 [Lapatinib]" value=NON
compound="O=c1[nH]cc(F)c(=O)[nH]1 [5-Fluorouracil]" value=TER
compound="O=C1O[C@H]([C@@H](O)CO)C(O)=C1O [Ascorbic Acid]" value=NON
compound="NNC(=O)c1ccncc1 [Isoniazid]" value=NON

Q: Lab note: WA09 hES cells assay, enter Viability Prediction for CC1=C(/C=C/C(C)=C/C=C/C(C)=C/CO)C(C)(C)CCC1 [Retinol] here
A: NON
